Source: ChEMBL document CHEMBL3988442

Quick reference: Percent Effect of the listed items.
- Organism: Homo sapiens
- methodNotes: To identify inhibition of the IFN signalling (Jak-Stat) pathway via expression of an eGFP reporter gene under the control of an IFN-stimulated response element (ISRE) containing MxA promoter.
- Format: functional
- Parameters: scale not given: direction of the effect not stated beside the values
- details: 30 µM
outcomeMeasure: Percent Effect (%)

INSERT INTO measurements (compound, outcomemeasure, obsvalue) VALUES
  ('Fc1ccc(OCc2noc(CN3CCc4cncnc4C3)n2)cc1', 'Percent Effect', 1.44),
  ('Cc1ccccc1-c1cc(C(=O)NCCN2CCCS2(=O)=O)[nH]n1', 'Percent Effect', 4.69),
  ('Cc1ccc(C(=O)N2CCCS2(=O)=O)cc1Cl', 'Percent Effect', -6.01),
  ('CCC(C)NC(=O)N1CCCn2cnc(CO)c2C1 (configuration not stated)', 'Percent Effect', 6.37),
  ('COc1ccc(CNC(=O)C2(C#N)CCCC2)cc1', 'Percent Effect', -14.7),
  ('O=C(O)c1csc(S(=O)(=O)N2CCCc3ccc(F)cc32)c1', 'Percent Effect', 8.48),
  ('CCC1=N[C@@]2(CC[C@@H]3CN(C(=O)NC(C)C)C[C@@H]32)C(=O)N1C', 'Percent Effect', 1.5),
  ('Cc1cc(N2CCN(Cc3nccn3C)CC2)cc(C)n1', 'Percent Effect', -10.6),
  ('Cc1ccc2cc(C(=O)NCCn3nc4ccccn4c3=O)[nH]c2c1', 'Percent Effect', 19.6),
  ('c1ccc(CN2CCc3ncnc(-c4ccsc4)c3CC2)nc1', 'Percent Effect', -21),
  ('CC(C)NC(=O)N1CCN(Cc2ccccn2)CC2(CC(=O)N(C)C2)C1 (configuration not stated)', 'Percent Effect', 13.5),
  ('CNS(=O)(=O)CCCN1CCCC1c1cc(C)on1 (configuration not stated)', 'Percent Effect', 13.8);

---

- assayTarget: Sialic acid-binding Ig-like lectin 9 (Homo sapiens)
- methodNotes: Hs-Siglec9 ALPHAscreen SOP 20170721
- Parameters: scale not given: direction of the effect not stated beside the values
- details: 10 µM
Quick reference: Percent Effect of the listed items.
outcomeMeasure: Percent Effect (%)

INSERT INTO results (compound, unitstring, obsvalue) VALUES
  ('COC(=O)c1sccc1NC(=O)C1CCCN1C(=O)c1ccco1 (stereo unspecified)', '%', -14.9),
  ('O=C(c1ccc(O)cc1)N1CCN(C(=O)c2ccc3c(c2)COC3)CC1', '%', 13.3),
  ('Cc1noc(C(C)C)c1C(=O)NCC(c1ccsc1)N(C)C (stereo unspecified)', '%', -4.7),
  ('CNC(=O)C1(c2cnccn2)CCCN1C(=O)c1ccn(C)n1 (stereo unspecified)', '%', -2.02),
  ('N#Cc1ccc(OCCN2CCc3c(ncn3C3CC3)C2)cc1', '%', -6.96),
  ('CCN1CCN(CC(C)(O)c2cccc(C(F)(F)F)c2)CC1 (stereo unspecified)', '%', 14.6),
  ('COC(=O)[C@H](C)NC(=O)c1cc(-c2cccc(Cl)c2)no1', '%', -0.548),
  ('CC(c1cccc(S(N)(=O)=O)c1)N(C)CCc1ccccc1 (stereo unspecified)', '%', -4.37),
  ('Cc1nc(-c2nnc[nH]2)sc1C(=O)N(Cc1cccnc1)C1CC1', '%', -5.72),
  ('Cc1ccc(-c2nnc(SCC(=O)O)n2-c2ccc(C)cc2)cc1', '%', 2.44),
  ('N#Cc1ccccc1OCCN1CCC(N2CCNC2=O)CC1', '%', 2.6);

---

- assayTarget: AMP-activated protein kinase, AMPK (Homo sapiens) (UniProt P54646+O43741+P54619+Q9UGJ0+Q9Y478+Q13131+Q9UGI9)
- methodNotes: AMP-dependent Kinase enzyme assay. An in vitro enzyme assay that detects ADP turnover that is directly proportional to AMPK activity. This uses naive AMPK that is activated during the assay with MK-8722
- Format: functional
- Parameters: scale not given: direction of the effect not stated beside the values
- details: 30 µM
outcomeMeasure: Percent Effect (%)

INSERT INTO assay_data (molecule, outcomemeasure, obsvalue) VALUES
  ('O=C1CCC2(CCN(Cc3nccs3)CC2)N1Cc1ccccc1', 'Percent Effect', 5.45),
  ('CC(C)NC(=O)c1nnn(-c2cccc(C(F)(F)F)c2)c1N', 'Percent Effect', -2.65),
  ('CCNC(=O)CCc1c(C)nc2cc(O)nn2c1C', 'Percent Effect', -428),
  ('CC(C)SCC(=O)N1CCc2c(nc(N(C)C)nc2N(C)C)C1', 'Percent Effect', -4.26),
  ('c1ccc(Cc2noc(CNC3CCc4ncnn4C3)n2)cc1 (configuration not stated)', 'Percent Effect', -4.03),
  ('CN(CCO)C(=O)c1coc(CN2CCN(c3ccccc3F)CC2)n1', 'Percent Effect', -1.48),
  ('Cc1ccc2c(c1)CCC21CCN(C(=O)CO)CC1', 'Percent Effect', -0.185),
  ('CC(C)c1noc(CN(Cc2cccs2)C2CC2)n1', 'Percent Effect', 7.3),
  ('CN(Cc1nccn1CC(F)(F)F)C(=O)c1cccc(C#N)c1', 'Percent Effect', 6.05),
  ('CC(NC(=O)NCCCn1ccnc1)c1ccc2c(c1)OCCCO2 (configuration not stated)', 'Percent Effect', -7.49),
  ('O=C([C@H]1CCCO1)N1CC[C@H](O)[C@@H]1Cc1ccncc1', 'Percent Effect', 0.39),
  ('Cc1cc(C)c(OCC(=O)NS(=O)(=O)c2cccnc2)c(C)c1', 'Percent Effect', -5.54);

---

- assayTarget: Proteasome subunit beta (Trypanosoma cruzi) (UniProt O96673)
- Sequence (O96673 as listed by the source): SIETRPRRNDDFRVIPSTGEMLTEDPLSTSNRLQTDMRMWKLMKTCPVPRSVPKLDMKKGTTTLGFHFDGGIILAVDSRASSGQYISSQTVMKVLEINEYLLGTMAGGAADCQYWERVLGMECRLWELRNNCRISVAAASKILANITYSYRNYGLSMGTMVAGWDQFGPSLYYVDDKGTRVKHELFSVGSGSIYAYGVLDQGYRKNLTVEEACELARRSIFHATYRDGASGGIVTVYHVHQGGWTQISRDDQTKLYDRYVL
- methodNotes: Trypanosoma cruzi proteasome chymotrypsin-like activity (TcProtChymo) assay. Further: in the data most compounds retested in dose-response had high values.
- Assay type: functional
- Parameters: scale not given: direction of the effect not stated beside the values
- details: 9.37 µM
Quick reference: Percent Effect of the listed items.
outcomeMeasure: Percent Effect

INSERT INTO assay_data (molecule, assaytarget, outcomemeasure, obsvalue) VALUES
  ('CCc1nc(C2CCCN2Cc2nc3ccccc3o2)no1 (stereo not drawn)', 'Proteasome subunit beta (Trypanosoma cruzi) (UniProt O96673)', 'Percent Effect', '2.67%'),
  ('CN(C)c1ccc(C(=O)NCC2(c3ccccc3)CCOCC2)cc1', 'Proteasome subunit beta (Trypanosoma cruzi) (UniProt O96673)', 'Percent Effect', '15.4%'),
  ('Cc1cnn(Cc2cc(F)ccc2F)c1NC(=O)C1COCCO1 (stereo not drawn)', 'Proteasome subunit beta (Trypanosoma cruzi) (UniProt O96673)', 'Percent Effect', '5.75%'),
  ('O=C(NCCn1nc2ccccn2c1=O)c1cccc2[nH]ncc12', 'Proteasome subunit beta (Trypanosoma cruzi) (UniProt O96673)', 'Percent Effect', '21.9%'),
  ('CCCS(=O)(=O)N1CCC2(CC1)CN(c1ccccn1)CCO2', 'Proteasome subunit beta (Trypanosoma cruzi) (UniProt O96673)', 'Percent Effect', '11.8%'),
  ('Cc1cccc(C(=O)NC(CN2CCCC2=O)c2ccccc2)n1 (stereo not drawn)', 'Proteasome subunit beta (Trypanosoma cruzi) (UniProt O96673)', 'Percent Effect', '8.35%'),
  ('CC(NC(=O)N1CCCN(Cc2cccs2)CC1)c1cccnc1 (stereo not drawn)', 'Proteasome subunit beta (Trypanosoma cruzi) (UniProt O96673)', 'Percent Effect', '8.02%'),
  ('CN(C)S(=O)(=O)N1C[C@@H](Oc2ccccn2)[C@H]2OCCC[C@H]21', 'Proteasome subunit beta (Trypanosoma cruzi) (UniProt O96673)', 'Percent Effect', '8.7%'),
  ('Cc1nc(C2CCCN2Cc2ncc(C(C)C)o2)no1 (stereo not drawn)', 'Proteasome subunit beta (Trypanosoma cruzi) (UniProt O96673)', 'Percent Effect', '1.44%'),
  ('Cc1cc(NC(=O)NCC(C)N2CCc3ccccc32)no1 (stereo not drawn)', 'Proteasome subunit beta (Trypanosoma cruzi) (UniProt O96673)', 'Percent Effect', '5.96%'),
  ('COc1ncc(C2(O)CCN(Cc3cccs3)CC2)c(OC)n1', 'Proteasome subunit beta (Trypanosoma cruzi) (UniProt O96673)', 'Percent Effect', '11.2%'),
  ('Cc1nc2ccccn2c1CN(Cc1cccnc1)CC1CCCO1 (stereo not drawn)', 'Proteasome subunit beta (Trypanosoma cruzi) (UniProt O96673)', 'Percent Effect', '7.63%'),
  ('CCc1nc(CNCC2CCCN2c2cc(NC)ncn2)cs1 (stereo not drawn)', 'Proteasome subunit beta (Trypanosoma cruzi) (UniProt O96673)', 'Percent Effect', '6.91%');
